Give pIC50 for every item shown.
Target: Cbl (aa49-434) (Homo sapiens)
Construct: Cbl (aa49-434, in-house); made in house
Sequence (P22681 49-434): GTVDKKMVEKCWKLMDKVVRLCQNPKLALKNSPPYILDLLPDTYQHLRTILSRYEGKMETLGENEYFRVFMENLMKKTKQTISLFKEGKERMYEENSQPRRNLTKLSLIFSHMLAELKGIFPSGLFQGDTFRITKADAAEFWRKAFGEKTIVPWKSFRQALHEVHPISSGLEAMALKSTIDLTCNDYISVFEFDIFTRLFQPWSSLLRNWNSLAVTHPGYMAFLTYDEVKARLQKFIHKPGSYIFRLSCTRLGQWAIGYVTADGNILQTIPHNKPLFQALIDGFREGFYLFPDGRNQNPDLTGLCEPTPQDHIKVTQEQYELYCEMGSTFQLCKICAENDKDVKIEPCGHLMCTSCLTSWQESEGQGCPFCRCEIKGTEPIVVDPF
Assay: Co-expressed Cbl with BirA biochemical assay (CBL/E2-Ub binding, HTRF)
Details: 0.6 nM Cbl co-expressed with BirA, read-out: co-express CBL/E2-Ub-binding assay IC50
The quantity pIC50 is defined as the negative base-10 logarithm of the molar concentration.

-- ask Provide measured pIC50 on Cbl (aa49-434) (Homo sapiens) for `Cn1cnnc1[C@]1(c2cccc(NC(=O)c3cc(CNC4(C)CCC4)cn4ccnc34)c2)C[C@H](C)C1` please.
-- reply 7.85

-- ask Provide measured pIC50 on Cbl (aa49-434) (Homo sapiens) for `Cc1cnc2c(C(=O)Nc3cccc([C@]4(c5nncn5C)C[C@@H](C)C4)c3)cc(CN3CC[C@H](F)[C@H](C)C3)cn12` please.
-- reply 8.23

-- ask Provide measured pIC50 on Cbl (aa49-434) (Homo sapiens) for `Cn1cnnc1[C@]1(c2cccc(NC(=O)c3cc(CNC4CCCCCC4)c4c(n3)C(C)(C)CC4)c2)C[C@H](CC#N)C1` please.
-- reply 8.17

---

Give IC50 for every item shown.
Target: Cbl-b (aa36-427) (Homo sapiens, UniProt Q13191)
Construct: Cbl-b (aa36-427, in-house); made in house
Sequence (Q13191 36-427): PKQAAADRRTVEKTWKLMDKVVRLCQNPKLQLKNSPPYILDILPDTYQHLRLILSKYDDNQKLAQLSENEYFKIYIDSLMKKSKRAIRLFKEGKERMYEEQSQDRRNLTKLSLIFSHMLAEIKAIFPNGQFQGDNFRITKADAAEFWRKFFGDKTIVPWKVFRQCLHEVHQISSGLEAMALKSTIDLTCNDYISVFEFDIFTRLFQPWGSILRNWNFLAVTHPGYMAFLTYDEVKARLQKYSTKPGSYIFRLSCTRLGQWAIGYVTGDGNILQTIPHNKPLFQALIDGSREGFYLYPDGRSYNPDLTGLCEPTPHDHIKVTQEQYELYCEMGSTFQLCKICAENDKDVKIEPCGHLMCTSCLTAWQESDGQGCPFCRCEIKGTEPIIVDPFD
Assay: Co-expressed Cbl-b with BirA biochemical assay (CBLB/E2-Ub binding, HTRF)
Details: 0.6 nM Cbl-b co-expressed with BirA, HTRF; read-out: co-express CBLB/E2-Ub-binding assay IC50
Expressed in nM, but write only the number.

-- ask Provide measured IC50 on Cbl-b (aa36-427) (Homo sapiens, UniProt Q13191) for `Cn1cnnc1C[C@]1(c2cccc(NC(=O)c3cc(CNCC4(C)CCCC4)cn4c(Cl)cnc34)c2)C[C@H](C#N)C1` please.
-- reply 1.3

-- ask Provide measured IC50 on Cbl-b (aa36-427) (Homo sapiens, UniProt Q13191) for `C[C@H]1CCCN(Cc2cc(C(=O)Nc3cccc([C@]4(Cc5nncn5C)C[C@@H](C#N)C4)c3)nc3c2NCC3(C)C)C1` please.
-- reply 1.4

-- ask Provide measured IC50 on Cbl-b (aa36-427) (Homo sapiens, UniProt Q13191) for `Cn1cnnc1[C@]1(c2cccc(NC(=O)c3cc(CNCC(C)(C)C)cn4ccnc34)c2)C[C@H](CC#N)C1` please.
-- reply 1.1

-- ask Provide measured IC50 on Cbl-b (aa36-427) (Homo sapiens, UniProt Q13191) for `Cn1cnnc1[C@]1(c2cccc(NC(=O)c3cc(CNC4(C)CCC4)c4c(n3)C(C)(C)CO4)c2)C[C@H](CC#N)C1` please.
-- reply 6.3

-- ask Provide measured IC50 on Cbl-b (aa36-427) (Homo sapiens, UniProt Q13191) for `Cn1cnnc1[C@]1(c2cccc(NC(=O)c3cc(CNCC4CCC4)c4c(n3)C(C)(C)CN4)c2)C[C@H](CC#N)C1` please.
-- reply 1.4

-- ask Provide measured IC50 on Cbl-b (aa36-427) (Homo sapiens, UniProt Q13191) for `Cn1cnnc1[C@]1(c2cccc(NC(=O)c3cc(CNCC4CCCC4)c4c(n3)C(C)(C)CN4)c2)C[C@H](C)C1` please.
-- reply 1.3
